These data points were gathered from patent US20180237497A1.

# Subject of test: T1, human IGF2^1-67 (mature insulin-like growth factor 2) (human, UniProt P01344 25-91, biotinylated (site not stated) where immobilised on the chip (Tables 1-4))
# T1 construct: mature; also called mature IGF2; biotinylated IGF2
# Experiment notes: SPR kinetic, biotin-IGF2 on chip, pH 7.4
Quantity kind: kon (M⁻¹ s⁻¹)

Please review the entries below; each comes with its answer.
{"Binder": "domain 11^AB5 K1631W (receptor, See m5; HI loop mutant) MKSNEHDDCQVTNPSTGHLFDLSSLSGRAGFTAAYAKGWGVYMSICGENENCPPGVGACFGQTRISVGKANKRLRYVDQVLQLVYKDGSPCPSKSGLSYKSVISFVCRPEAGPTNRPMLISLDWQTCTLFFSWHTPLACEQATECSV", "Measurement unit": "M⁻¹ s⁻¹", "Observed measurement": "1.18e+06"}
{"Binder": "IGF2R domain 11^AB3 (receptor, His6-tagged soluble domain 11; also called domain 11^E1544K, K1545S, L1547V; 1542YSKSGV1547) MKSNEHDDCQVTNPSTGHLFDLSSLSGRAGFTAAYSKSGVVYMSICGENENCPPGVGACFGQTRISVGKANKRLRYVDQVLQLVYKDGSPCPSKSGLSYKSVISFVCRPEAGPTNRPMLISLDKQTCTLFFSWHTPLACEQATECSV", "Measurement unit": "M⁻¹ s⁻¹", "Observed measurement": "2.76e+06"}
{"Binder": "domain 11^AB5 T1633A (receptor, See m5; HI loop mutant) MKSNEHDDCQVTNPSTGHLFDLSSLSGRAGFTAAYAKGWGVYMSICGENENCPPGVGACFGQTRISVGKANKRLRYVDQVLQLVYKDGSPCPSKSGLSYKSVISFVCRPEAGPTNRPMLISLDKQACTLFFSWHTPLACEQATECSV", "Measurement unit": "M⁻¹ s⁻¹", "Observed measurement": 800000}
{"Binder": "domain 11^AB5 S1602H (receptor, See m5) MKSNEHDDCQVTNPSTGHLFDLSSLSGRAGFTAAYAKGWGVYMSICGENENCPPGVGACFGQTRISVGKANKRLRYVDQVLQLVYKDGSPCPSKHGLSYKSVISFVCRPEAGPTNRPMLISLDKQTCTLFFSWHTPLACEQATECSV", "Measurement unit": "M⁻¹ s⁻¹", "Observed measurement": "3.61e+06"}
{"Binder": "domain 11^AB5 Q1632A (receptor, See m5; HI loop mutant) MKSNEHDDCQVTNPSTGHLFDLSSLSGRAGFTAAYAKGWGVYMSICGENENCPPGVGACFGQTRISVGKANKRLRYVDQVLQLVYKDGSPCPSKSGLSYKSVISFVCRPEAGPTNRPMLISLDKATCTLFFSWHTPLACEQATECSV", "Measurement unit": "M⁻¹ s⁻¹", "Observed measurement": "4.5e+06"}
{"Binder": "domain 11^AB5 W1546F (receptor, See m5) MKSNEHDDCQVTNPSTGHLFDLSSLSGRAGFTAAYAKGFGVYMSICGENENCPPGVGACFGQTRISVGKANKRLRYVDQVLQLVYKDGSPCPSKSGLSYKSVISFVCRPEAGPTNRPMLISLDKQTCTLFFSWHTPLACEQATECSV", "Measurement unit": "M⁻¹ s⁻¹", "Observed measurement": "4.5e+06"}

I = domain 11^AB5 S1602Q (receptor, See m5) MKSNEHDDCQVTNPSTGHLFDLSSLSGRAGFTAAYAKGWGVYMSICGENENCPPGVGACFGQTRISVGKANKRLRYVDQVLQLVYKDGSPCPSKQGLSYKSVISFVCRPEAGPTNRPMLISLDKQTCTLFFSWHTPLACEQATECSV
II = domain 11^AB5 K1601A (receptor, See m5) MKSNEHDDCQVTNPSTGHLFDLSSLSGRAGFTAAYAKGWGVYMSICGENENCPPGVGACFGQTRISVGKANKRLRYVDQVLQLVYKDGSPCPSASGLSYKSVISFVCRPEAGPTNRPMLISLDKQTCTLFFSWHTPLACEQATECSV
III = domain 11^AB5 L1604A (receptor, See m5) MKSNEHDDCQVTNPSTGHLFDLSSLSGRAGFTAAYAKGWGVYMSICGENENCPPGVGACFGQTRISVGKANKRLRYVDQVLQLVYKDGSPCPSKSGASYKSVISFVCRPEAGPTNRPMLISLDKQTCTLFFSWHTPLACEQATECSV
Hello, I need these entries ordered by kon, highest reading first. Thanks! Answer with the labels in sequence, matching the requested order.
I, II, III
